- protocol description: in vivo
- protocol conditions: male, SD, rat, plasma, iv, 0.5 mg/kg
result type: AUC(0-t) (ng·h/mL)
A number alone suffices; assume ng·h/mL.

Q: So what does the record say about AUC(0-t) for C[C@@H]1[C@H](O)[C@@H](C)/C=C/C=C/C=C/C=C/C=C/C=C/C=C/[C@H](O[C@@H]2O[C@H](C)[C@@H](O)[C@H](N)[C@@H]2O)C[C@@H]2O[C@](O)(C[C@@H](O)C[C@@H](O)[C@H](O)CC[C@@H](O)C[C@@H](O)CC(=O)O[C@H]1C)C[C@H](O)[C@H]2C(=O)O ?
Result: 415
